B1: ZNF263 (parent)
chain: QRTHTGEKPYKCPECGEIFAHSSN

# Variants of: B1
# experiment: protein stability index of a GFP-peptide fusion (GPS, HEK-293T) (PSI 1-6); higher = more stable;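 also: lentivirally expressed fusions sorted by FACS into six bins by GFP to DsRed ratio, PSI derived from sequencing read proportions per bin multiplied by bin number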
# condition: c terminus: a fixed tail appended
measuredProperty: protein stability index
A bare number is all that is needed in reply.

{"columns": ["mutationDescriptor", "dataValue"],
 "data": [
  ["G6P", 3.23],
  ["Y10N", 4.17],
  ["P13L", 3.56],
  ["E14Y", 2.97],
  ["T3L", 3.31]
]}

Please report the recorded protein stability index for `G16D` . 3.9

Please report the recorded protein stability index for `H4D` . 3.98

Please report the recorded protein stability index for `H4C` . 3.29

Please report the recorded protein stability index for `S23R` . 2.77

Please report the recorded protein stability index for `T5K` . 3

Please report the recorded protein stability index for `C12T` . 4.57

Please report the recorded protein stability index for `T5Y` . 3.11

Please report the recorded protein stability index for `K8E` . 3.82

Please report the recorded protein stability index for `E17C` . 4.6

Please report the recorded protein stability index for `S23Y` . 2.73

Please report the recorded protein stability index for `E7C` . 3.93

Where do the numbers come from? From the supplement of paper PMC10567573.
